Target: T1, Mouse BSSL, recombinant (mouse, UniProt Q64285 21-599)
T1 construct: Bought (R&D Systems, Cat. no 5658-CE); also called mBSSL; murine BSSL
T1 sequence: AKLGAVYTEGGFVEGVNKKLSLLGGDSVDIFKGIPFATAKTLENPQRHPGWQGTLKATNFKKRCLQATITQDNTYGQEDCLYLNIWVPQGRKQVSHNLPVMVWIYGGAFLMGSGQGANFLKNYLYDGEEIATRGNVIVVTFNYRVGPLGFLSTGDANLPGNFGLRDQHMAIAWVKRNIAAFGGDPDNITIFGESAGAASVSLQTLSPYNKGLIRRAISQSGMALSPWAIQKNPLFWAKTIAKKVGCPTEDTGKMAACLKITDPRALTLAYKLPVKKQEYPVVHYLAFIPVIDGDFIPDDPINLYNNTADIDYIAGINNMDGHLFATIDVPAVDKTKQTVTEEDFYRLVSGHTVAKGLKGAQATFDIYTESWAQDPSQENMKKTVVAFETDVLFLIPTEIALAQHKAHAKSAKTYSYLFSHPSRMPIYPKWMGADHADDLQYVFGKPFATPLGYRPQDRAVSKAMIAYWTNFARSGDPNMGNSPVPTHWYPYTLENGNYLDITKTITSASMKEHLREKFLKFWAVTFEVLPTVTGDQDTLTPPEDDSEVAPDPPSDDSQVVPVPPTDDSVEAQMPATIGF
Assay: SPR steady state, captured by anti-Fab, Absolute Antibody batch
Description: Kinetic parameters of the hIgG4 S228P clones were determined by SPR using BIACORE® T200 (GE Healthcare). An anti-Fab antibody (GE #28958325) was immobilized on a CM5 S sensor chip by primary amine coupling using NHS-EDC chemistry. The hIgG4 antibodies were captured by the anti-Fab antibody, and subsequently, five different concentrations of hBSSL (1:5 dilutions, 0.08-50 nM) or mBSSL (1:2 dilutions, 50-800 nM) were injected over the surface. […]
Give measured pKd for each item. Keep answers brief.
// pKd: -log10(molar conc.)

Report measured pKd; entry is S-SL048-46 hIgG4 S228P (antibody, V domains shown, also called clone 46; mAb46) VH: QVQLVQSGAEVKKPGASVKVSCKASGYTFTSYNMHWVRQAPGQGLEWMGVINPGDGATSYNQKFQGRVTMTRDTSTSTVYMELSSLRSEDTAVYYCARDYYGSSPLGYWGQGTLVTVSS VL: DIQMTQSPSSLSASVGDRVTITCRASSSISYLNWYQQKPGKAPKLLIYAASSLASGVPSRFSGSGSGTDFTLTISSLQPEDFATYYCHQRSSSPTFGQGTKLEIKR
7.26

Fill in reported pKd for this entry: S-SL048-116 hIgG4 S228P (antibody, V domains shown, also called mAb116) VH: QVQLVQSGAEVKKPGASVKVSCKASGYTFTSYNMHWVRQAPGQGLEWMGVINPGDGATSYAQKFKGRVTMTRDTSTSTVYMELSSLRSEDTAVYYCARDYYGSSPLGYWGQGTLVTVSS VL: DIQMTQSPSSLSASVGDRVTITCRASPSISYMNWYQQKPGKAPKLLIYATSSLASGVPSRFSGSGSGTDFTLTISSLQPEDFATYYCHQRSSSPTFGQGTKLEIKR
7.40

Read off the recorded pKd for S-SL048-118 hIgG4 S228P (antibody, V domains shown, also called clone 118; mAb118) VH: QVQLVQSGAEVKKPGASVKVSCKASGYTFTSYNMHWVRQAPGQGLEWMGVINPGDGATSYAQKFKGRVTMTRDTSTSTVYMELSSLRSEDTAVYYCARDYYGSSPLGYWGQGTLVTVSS VL: DIQMTQSPSSLSASVGDRVTITCSASPSISYMNWYQQKPGKAPKLLIYATSSLPSGVPSRFSGSGSGTDFTLTISSLQPEDFATYYCHQRSSSPTFGQGTKLEIKR
7.15

Give recorded pKd. S-SL048-11 hIgG4 S228P (antibody, V domains shown, also called clone 11; mAb11) VH: QVQLVQSGAEVKKPGASVKVSCKASGYTFTSYNMHWVRQAPGQGLEWMGVIYPGDGATSYAQKFKGRVTMTRDTSTSTVYMELSSLRSEDTAVYYCARDYYGSSPLGYWGQGTLVTVSS VL: DIQMTQSPSSLSASVGDRVTITCSASPSISYMNWYQQKPGKAPKLLIYATSSLASGVPSRFSGSGSGTDFTLTISSLQPEDFATYYCHQRSSYPTFGQGTKLEIKR
7.19
